- Experimental target: T1, DR4G89: Human HLA-DRA1*01:02/DRB1*04:01 ECD with hemagglutinin peptide HA_304-318 (human)
- T1 construct: also called DRG89; HLA-DR4 with HA_304-318
- Test method notes: MSD ECL; antigen coated; mAb 0.2 µg/ml
Measured property: ECL signal

- DR4B30 (antibody, human IgG2, kappa, V domains shown, also called VH DR4H39 / VL PH9L3) VH: EVQLVQSGAEVKKPGESLKISCKGSGYSFTSDWIGWVRQMPGKGLEWMGIIRPGDSDTYYSPSFQGQVTISADKSISTAYLQWSSLKASDTAVYYCARESYYYVGVRYRPSYYFDYWGQGTLVTVSS VL: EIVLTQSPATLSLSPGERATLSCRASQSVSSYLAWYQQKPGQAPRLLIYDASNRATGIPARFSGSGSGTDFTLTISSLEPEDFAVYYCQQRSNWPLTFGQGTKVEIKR: 1.13e+06 ECL
- DR4B5 (antibody, V domains shown, also called apolizumab (1D10) re-engineered as IgG2sigma) VH: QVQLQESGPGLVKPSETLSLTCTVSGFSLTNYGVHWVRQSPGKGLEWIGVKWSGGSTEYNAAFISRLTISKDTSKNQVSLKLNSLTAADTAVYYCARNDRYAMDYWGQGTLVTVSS VL: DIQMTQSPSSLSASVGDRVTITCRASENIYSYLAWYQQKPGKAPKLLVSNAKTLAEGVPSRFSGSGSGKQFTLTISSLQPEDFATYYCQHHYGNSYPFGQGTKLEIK: 1.26e+06 ECL
